Test system: J774 murine macrophages
Test: Cytotoxicity on J774 macrophages (MTT)
Type: cell-based
Details: Mus musculus, J774, 24 h, read-out: J774 IC50, J774 macrophages, MTT, 24 h
Procedure: Cytotoxicity assays for the compounds selected for their trypanocidal activity were performed on J774 macrophage cells using the MTT method. For this purpose, 50,000 cells/well resuspended in RPMI medium and 2% foetal bovine serum were seeded in a 96-well plate and incubated for 24 h at 37 °C. […] After 1 h incubation at 37 °C, the absorbance at 570 nm was recorded on an Elisa Epoch reader. […]
metricName: IC50

response.value for O=C(NC1CCN(C2=C(Cl)C(=O)c3ccccc3C2=O)CC1)c1cc([N+](=O)[O-])cc([N+](=O)[O-])c1 (field: IC50) = ~25 µM

====

Readings of melting point for the listed molecules

{"smilesCode": "O=C1C(Cl)=C(N2CCC(N3CCOCC3)CC2)C(=O)c2ccccc21", "result": "145 to 146 °C"}

get_value(item= O=C1C(Br)=C(N2CCC(N3CCOCC3)CC2)C(=O)c2ccccc21 , readout=melting point) returns 148 to 149 °C

Reported melting point of Cc1cc(C)cc(C(=O)NC2CCN(C3=C(Cl)C(=O)c4ccccc4C3=O)CC2)c1 : 206 to 208 °C

In plain terms, O=C(NC1CCN(C2=C(Cl)C(=O)c3ccccc3C2=O)CC1)c1ccccc1Br has a documented melting point of 197 to 198 °C

O=C1C=C(N2CCC(N3CCOCC3)CC2)C(=O)c2ccccc21 has a reported melting point of 151 to 153 °C

====

Biological target: recombinant TcTR (Trypanosoma cruzi, UniProt P28593)
Sequence (P28593 whole entry): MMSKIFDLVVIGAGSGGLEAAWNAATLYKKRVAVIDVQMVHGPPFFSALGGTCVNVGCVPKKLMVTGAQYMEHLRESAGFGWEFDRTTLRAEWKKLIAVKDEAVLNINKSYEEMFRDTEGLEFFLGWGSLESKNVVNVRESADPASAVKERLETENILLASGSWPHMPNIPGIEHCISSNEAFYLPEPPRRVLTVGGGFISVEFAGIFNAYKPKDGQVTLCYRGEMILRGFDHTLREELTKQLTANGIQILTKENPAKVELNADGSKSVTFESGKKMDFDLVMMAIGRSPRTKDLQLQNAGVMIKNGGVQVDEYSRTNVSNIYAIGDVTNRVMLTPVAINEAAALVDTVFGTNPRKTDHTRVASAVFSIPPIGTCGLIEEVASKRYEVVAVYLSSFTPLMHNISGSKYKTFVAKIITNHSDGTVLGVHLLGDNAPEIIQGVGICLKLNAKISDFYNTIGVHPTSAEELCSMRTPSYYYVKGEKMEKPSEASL
Assay: Trypanothione reductase inhibition assay (TS2-dependent NADPH oxidation)
Format: biochemical
Conditions: mixed-type inhibition; TS2 varied, NADPH fixed 160 µM; global nonlinear regression; read-out: Ki 7j vs. TS2
Method: The inhibition of TcTR activity by 7j was evaluated by monitoring the trypanothione disulphide (TS2)-dependent NADPH oxidation by using the assay described before. […] The absorbance at 340 nm was recorded in real time for 10 min, and the activity was calculated from the slope of the curves as μmol of NADPH oxidised per min (e^340 = 6.22 mM^−1 cm^−1).
metricName: Ki (µM)
# unit: µM | format: bare number

Data point: O=C1C(Cl)=C(N2CCC(NC(=O)c3cccc4ccccc34)CC2)C(=O)c2ccccc21 ; Ki = 28

====

Each entry below carries its recorded LC50.
System: T. cruzi trypomastigotes, NINOA strain
Experiment: microbe, parasite or virus in culture
Assay type: cell-based
Details: Trypanosoma cruzi; bloodstream trypomastigotes, NINOA strain; 24 h at 4 °C; read-out: Trypo NINOA LC50 (half-maximal lytic concentration)
// note: answer is a bare numeric in µM

{"molecule": "O=C1C(Br)=C(N2CCN(C3CCCC3)CC2)C(=O)c2ccccc21 [Compound 2f]", "systemUnderTest": "T. cruzi trypomastigotes, NINOA strain", "metricName": "LC50", "uom": "µM", "resultNumber": 97.9}

Summary for this molecule, O=C1C(Cl)=C(N2CCC(NC(=O)c3ccc(C(F)(F)F)cc3[N+](=O)[O-])CC2)C(=O)c2ccccc21 [Compound 7i] : LC50 is 90.5

====

System: T. cruzi trypomastigotes, NINOA strain
Assay: microbe, parasite or virus in culture
Type: cell-based
Details: Trypanosoma cruzi; bloodstream trypomastigotes, NINOA strain; 24 h at 4 °C; read-out: Trypo NINOA LC50 (half-maximal lytic concentration)
metricName: LC50 (µM)
Return type: number; implicit unit µM.

Some entries whose results are on file:
{"smilesCode": "COc1ccc(C(=O)NC2CCN(C3=C(Cl)C(=O)c4ccccc4C3=O)CC2)cc1F", "uom": "µM", "resultNumber": 78.6}
{"smilesCode": "O=C1C(Cl)=C(N2CCC(NC(=O)c3cccc4ccccc34)CC2)C(=O)c2ccccc21", "uom": "µM", "resultNumber": 98.1}
{"smilesCode": "O=C(NC1CCN(C2=C(Cl)C(=O)c3ccccc3C2=O)CC1)c1cccc(Cl)c1", "uom": "µM", "resultNumber": 68.4}

Now turn to the next molecule.
The molecule O=C(NC1CCN(C2=C(Cl)C(=O)c3ccccc3C2=O)CC1)c1ccc([N+](=O)[O-])cc1 showed LC50 equal to 80.3

====

Tested on: T. cruzi epimastigotes, INC-5 strain
Experiment: Growth inhibition of T. cruzi epimastigotes, INC-5 strain
Type: cell-based, Trypanosoma cruzi
Settings: Trypanosoma cruzi, 120 h, epimastigotes, INC-5 strain; five days; means of three independent experiments; read-out: Epi INC-5 IC50
IC50 reference
Express the result in nM but write the number alone.

{"molecule": "O=C(Cn1ccnc1[N+](=O)[O-])NCc1ccccc1 [Bzn, benznidazole, reference compound]", "resultNumber": 42300}

For the molecule O=C(NC1CCN(C2=C(Cl)C(=O)c3ccccc3C2=O)CC1)c1cc(F)cc(Cl)c1 , the measured IC50 on T. cruzi epimastigotes, INC-5 strain was 2570

The observed IC50 for O=C1C(Br)=C(N2CCN(C3CCCC3)CC2)C(=O)c2ccccc21 when tested with T. cruzi epimastigotes, INC-5 strain stands at 1460

Bench note, T. cruzi epimastigotes, INC-5 strain: O=C1C=C(NCCN2CCOCC2)C(=O)c2ccccc21 , IC50 reads 3060

O=C1C(Br)=C(N2CCC(N3CCOCC3)CC2)C(=O)c2ccccc21 on T. cruzi epimastigotes, INC-5 strain gives IC50 = 1740

Form: item O=C(NC1CCN(C2=C(Cl)C(=O)c3ccccc3C2=O)CC1)c1ccccc1Br ; test system T. cruzi epimastigotes, INC-5 strain; IC50: 2460

====

System: T. cruzi epimastigotes, NINOA strain
Experiment: Growth inhibition of T. cruzi epimastigotes, NINOA strain
Assay type: cell-based
Details: Trypanosoma cruzi, 120 h, read-out: Epi NINOA IC50
metricName: IC50
Answer format: number, then unit.

The compound listed as O=C(NC1CCN(C2=C(Cl)C(=O)c3ccccc3C2=O)CC1)c1cc([N+](=O)[O-])cc([N+](=O)[O-])c1 [Compound 7f] has a reported IC50 of 990 nM

====

The entries below come with measured pIC50 values attached.
Tested on: J774 murine macrophages
Assay: Cytotoxicity on J774 macrophages (MTT)
Assay type: cell-based
Conditions: Mus musculus, J774, 24 h, J774 macrophages, MTT, 24 h; read-out: J774 IC50
pIC50: −log10 of the molar value.

Below, 3 molecules whose answers are already recorded.
{"molecule": "O=C1C(Cl)=C(N2CCC(NC(=O)c3cccc4ccccc34)CC2)C(=O)c2ccccc21", "pIC50": "~4.60"}
{"molecule": "O=C(Cn1ccnc1[N+](=O)[O-])NCc1ccccc1 [Bzn, benznidazole, reference compound]", "pIC50": 3.45}
{"molecule": "O=C(NC1CCN(C2=C(Cl)C(=O)c3ccccc3C2=O)CC1)c1cccc(Cl)c1", "pIC50": "~4.60"}

Entry COc1ccc(C(=O)NC2CCN(C3=C(Cl)C(=O)c4ccccc4C3=O)CC2)cc1F — recorded pIC50 = ~4.60

====

This section presents compounds with their documented IC50 values.
System: T. cruzi epimastigotes, INC-5 strain
Assay: Growth inhibition of T. cruzi epimastigotes, INC-5 strain
Assay type: cell-based, Trypanosoma cruzi
Details: Trypanosoma cruzi, 120 h, epimastigotes, INC-5 strain; five days; means of three independent experiments; read-out: Epi INC-5 IC50
Numbers only; they are read as µM.

{"compound": "O=C1C(Cl)=C(NCCN2CCOCC2)C(=O)c2ccccc21 [Compound 2b]", "uom": "µM", "IC50": 2.98}

Just so you know, measured IC50 for Cc1cc(C)cc(C(=O)NC2CCN(C3=C(Cl)C(=O)c4ccccc4C3=O)CC2)c1 [Compound 7e] came out at 5.6

The reported value for O=C1C=C(N2CCC(N3CCOCC3)CC2)C(=O)c2ccccc21 [Compound 2g] in terms of IC50 is 8.45

Entry COc1ccc(C(=O)NC2CCN(C3=C(Cl)C(=O)c4ccccc4C3=O)CC2)cc1F [Compound 7h] ; IC50 = 1.35

// sample O=C1C(Cl)=C(N2CCC(NC(=O)c3ccc(C(F)(F)F)cc3[N+](=O)[O-])CC2)C(=O)c2ccccc21 [Compound 7i] , its IC50 was 3.35

compound O=C(NC1CCN(C2=C(Cl)C(=O)c3ccccc3C2=O)CC1)c1ccc(CCl)cc1 [Compound 7d] , IC50 observed: 2.3

====

The entries below come with measured IC50 values attached.
Test system: T. cruzi epimastigotes, INC-5 strain
Test: Growth inhibition of T. cruzi epimastigotes, INC-5 strain
Assay type: cell-based, Trypanosoma cruzi
Settings: Trypanosoma cruzi, 120 h, epimastigotes, INC-5 strain; five days; means of three independent experiments; read-out: Epi INC-5 IC50
Value expressed in nM; do not type the unit.

Examples from the recorded data:
{"smilesCode": "O=C1C=C(N2CCN(C3CCCC3)CC2)C(=O)c2ccccc21", "uom": "nM", "IC50": 5040}
{"smilesCode": "O=C(NC1CCN(C2=C(Cl)C(=O)c3ccccc3C2=O)CC1)c1ccc([N+](=O)[O-])cc1", "uom": "nM", "IC50": 2230}
{"smilesCode": "O=C1C(Cl)=C(N2CCC(N3CCOCC3)CC2)C(=O)c2ccccc21", "uom": "nM", "IC50": 6600}
{"smilesCode": "O=C1C(Br)=C(NCCN2CCOCC2)C(=O)c2ccccc21", "uom": "nM", "IC50": 2220}

Let us move to another entry and its IC50.
Note to self: IC50 recorded for O=C(NC1CCN(C2=C(Cl)C(=O)c3ccccc3C2=O)CC1)c1cccc(Cl)c1 was 1140
